FYI, the data here is from patent US20050256058A1.

# test target: T1, Caspase-6 (UniProt P55212 24-293, limits assumed)
# T1 sequence (looked up): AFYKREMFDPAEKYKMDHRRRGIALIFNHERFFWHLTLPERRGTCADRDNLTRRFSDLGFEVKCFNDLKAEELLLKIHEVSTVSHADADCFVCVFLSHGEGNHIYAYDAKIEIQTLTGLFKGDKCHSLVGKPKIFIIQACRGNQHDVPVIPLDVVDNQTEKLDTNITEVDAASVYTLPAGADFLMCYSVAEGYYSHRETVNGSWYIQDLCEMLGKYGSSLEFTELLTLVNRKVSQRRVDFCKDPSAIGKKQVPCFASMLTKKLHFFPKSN
# assay info: cell-based or functional assay
Numbered stars: 1 amine (or outer) side, 2 acyl side, 3 side chain; on linkers, the order of the positions; unused ones are H or OH. Square brackets hold non-standard residues; d marks the D form. * marks the point of attachment. CH═CH‑CON(CH3)CH2CH2Ph = CN(CCc1ccccc1)C(=O)/C=C/*; AAsp = aza-Asp, O=C(N(CC(=O)[*:3])N[*:1])[*:2]; Cbz = O=C(OCc1ccccc1)*
measurement name: k2 (M⁻¹ s⁻¹)

Cbz-DEV[AAsp]-{CH═CH‑CON(CH3)CH2CH2Ph} (SMILES CC(C)[C@H](NC(=O)[C@H](CCC(=O)O)NC(=O)[C@H](CC(=O)O)NC(=O)OCc1ccccc1)C(=O)NN(CC(=O)O)C(=O)/C=C/C(=O)N(C)CCc1ccccc1) [Cbz-Asp-Glu-Val-AAsp-CH═CH-CON(CH3)CH2CH2Ph] :: 4000

[A] Cbz-LET[AAsp]-{CH═CH‑CONHCH2Ph} [Cbz-Leu-Glu-Thr-AAsp-CH═CH-CONHCH2Ph]
[B] Cbz-DEV[AAsp]-{CH═CH‑CONHCH2‑4‑F‑Ph} [Cbz-Asp-Glu-Val-AAsp-CH═CH-CONHCH2-4-F-Ph]
Enquiry: Given the two records A and B , choose the one whose k2 value is lower. Answer format: the label of the selected item.
Return: A
(A: 1550 M⁻¹ s⁻¹, B: 4400 M⁻¹ s⁻¹)
